Recorded values, source ChEMBL document CHEMBL1125860.

Species on record: Rattus norvegicus
procedureDetails: In vitro inhibition of sorbitol accumulation was measured in rat sciatic nerves incubated in the presence of 50 mM glucose at 10e-6 M concentration
Assay type: functional
runParameters: Sciatic nerve
measuredMetric: pIC50
For clarity, pIC50 is expressed as the negative log10 of concentration in mol/L.

{"columns": ["compound", "pIC50"],
 "data": [
  ["O=C(O)Cc1nn(Cc2ccc(Br)cc2F)c(=O)c2ccccc12 [PONALRESTAT]", 7.43]
]}

Then there is this compound:
stdin: Value lookup for pIC50; key = O=C1NC(=O)[C@@]2(CCOc3ccc(F)cc32)N1 [SORBINIL]
stdout: 5.66
